Tested on: PRKACA-PRKAR2A interaction (SmBiT-PRKACA / LgBiT-PRKAR2A), protein kinase A
Parameters: NanoLuc complementation counter-screen in cell extract, PRKACA with PRKAR2A, loss of luminescence, detects NanoLuc interference
TEST CONTEXT: counter-screen for NanoLuc interference, 0.5 h, 20 µM, inhibitor, Inh (PKA)
Where a name gives a salt, the structure may show the parent alone.
# Inh (PKA) per entry
The reply should be a number in %, with the unit left off.

Ask: Can you share its Inh (PKA)? I mean this molecule: C[C@@H]1CCN(C(=O)CC#N)C[C@@H]1N(C)c1ncnc2[nH]ccc12 [UM0141728:01, Tofacitinib (CP-690550) Citrate]
Result: -4.37

Ask: Also, O=C(c1ccccc1)c1ccc2n1CCC2C(=O)O (stereo not drawn) [UM0142262:01, Ketorolac tromethamine salt] please.
Result: -1.185

Ask: How about O=c1c(O)c(-c2ccc(O)c(O)c2)oc2cc(O)cc(O)c12 [UM0133552:03, Quercetin] ?
Result: 26.1

Ask: Another molecule to check: C[C@@H]1CCN(C(=O)CC#N)C[C@@H]1N(C)c1ncnc2[nH]ccc12 [UM0128176:02, Tofacitinib (CP-690550,Tasocitinib)]
Result: -2.944

Ask: Now the molecule COc1cc(Nc2ncc(F)c(Nc3ccc4c(n3)NC(=O)C(C)(C)O4)n2)cc(OC)c1OC [UM0142079:01, R406]
Result: 54.73

Ask: // same read-out, input: O=C(O)/C=C/c1ccc(Cn2ccnc2)cc1 [UM0141799:01, Ozagrel]
Result: 1.747

Ask: # repeat for Nc1ccn([C@@H]2O[C@H](CO)[C@@H](O)C2(F)F)c(=O)n1 [UM0142041:01, Gemcitabine]
Result: -0.03613

Ask: Try this molecule next: COC(=O)N[C@H](C(=O)N[C@@H](Cc1ccccc1)[C@@H](O)CN(Cc1ccc(-c2ccccn2)cc1)NC(=O)[C@@H](NC(=O)OC)C(C)(C)C)C(C)(C)C [UM0141677:01, Atazanavir sulfate (BMS-232632-05)]
Result: 2.404

Ask: Item: O=C(Cc1ccc(-c2ccc(OCCN3CCOCC3)cc2)cn1)NCc1ccccc1 [UM0142472:01, KX2-391]
Result: 3.767

* * *

// Inh (PKA) lookup, one value per entry
Test system: PRKACA-PRKAR2A interaction (SmBiT-PRKACA / LgBiT-PRKAR2A), protein kinase A
Set-up: NanoLuc complementation counter-screen in cell extract, PRKACA with PRKAR2A, loss of luminescence, detects NanoLuc interference
TEST CONTEXT: counter-screen for NanoLuc interference; 0.5 h, 20 µM; inhibitor
Structures can show the parent of a compound that is named as a salt.
Please report the result as a number followed by the unit.

Check out these entries, answers already filled in.
>  <COMPOUND>
CC(C)(C)OC(=O)N[C@H]1CCCCC/C=C\[C@@H]2C[C@@]2(C(=O)NS(=O)(=O)C2CC2)NC(=O)[C@@H]2C[C@@H](OC(=O)N3Cc4cccc(F)c4C3)CN2C1=O [UM0141670:01, Danoprevir (RG7227)]

>  <Inh (PKA)>
3.662%

$$$$
>  <COMPOUND>
COc1cc2c(cc1Cc1cccc(Cl)c1F)c(=O)c(C(=O)O)cn2[C@H](CO)C(C)C

>  <Inh (PKA)>
4.883%

$$$$
>  <COMPOUND>
O=C(O)CCCc1ccccc1 [UM0141598:03, Sodium Phenylbutyrate]

>  <Inh (PKA)>
1.56%

$$$$
>  <COMPOUND>
CNc1nc(-c2ccc3c(N)n[nH]c3c2)cc(N2C[C@@H](C(=O)NC3CCCCC3)CC[C@H]2C)n1

>  <Inh (PKA)>
2.681%

$$$$
>  <COMPOUND>
CC1(C)CCC(c2ccc(Cl)cc2)=C(CN2CCN(c3ccc(C(=O)NS(=O)(=O)c4ccc(N[C@H](CCN5CCOCC5)CSc5ccccc5)c(S(=O)(=O)C(F)(F)F)c4)cc3)CC2)C1

>  <Inh (PKA)>
-0.2397%

$$$$

# next compound below
Ask: Quick one: Inh (PKA) for CC(C)SC(=N)N [UM0142772:01, S-Isopropylisothiourea hydrobromide] ?
Result: 0.4324%

* * *

TESTED TARGET: MeCP2-TBL1 interaction (MeCP2-SmBiT / TBL1-LgBiT) (Mus musculus)
Construct: expressed in transfected cells; crude lysate used as a cell-free assay
Sequence (Q9QXE7 166-527): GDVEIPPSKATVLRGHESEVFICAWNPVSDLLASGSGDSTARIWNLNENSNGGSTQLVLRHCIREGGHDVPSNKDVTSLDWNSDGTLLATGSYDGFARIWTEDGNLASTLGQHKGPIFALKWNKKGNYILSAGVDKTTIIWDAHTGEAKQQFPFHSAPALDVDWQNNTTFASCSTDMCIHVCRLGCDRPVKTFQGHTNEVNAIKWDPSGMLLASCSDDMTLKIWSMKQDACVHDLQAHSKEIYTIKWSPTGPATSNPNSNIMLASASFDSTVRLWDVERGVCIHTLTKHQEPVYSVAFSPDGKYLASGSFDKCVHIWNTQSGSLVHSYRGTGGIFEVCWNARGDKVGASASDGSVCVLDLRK
PROTOCOL DETAILS: MeCP2-TBL1 NanoLuc luciferase complementation assay (cell-free, extracts of transfected HEK293 cells);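 further: each compound tested at 20 µM final concentration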
Format: binding, human
TEST CONTEXT: primary screen of the Asinex library, sheet "Sargen output Asinex library", one well per compound
TEST READOUT: Inhibition percent (%)
Express your answer in %, writing the number without its unit.

>  <COMPOUND>
Cc1cc(C2CCCN(Cc3ccc(-c4ccccc4C(=O)O)o3)C2)ccn1 (stereo not shown)

>  <Inhibition percent [%]>
6.28

$$$$
>  <COMPOUND>
COc1ccc(CNC(=O)c2cnc(C)nc2C2CCCCN2C(=O)c2cnccn2)cc1 (stereo not shown)

>  <Inhibition percent [%]>
0.37

$$$$
>  <COMPOUND>
COc1cccc(-c2cc(C(=O)N3CCC[C@@]4(C[C@@H](Oc5cccc(Cl)c5)CO4)C3)[nH]n2)c1

>  <Inhibition percent [%]>
6.38

$$$$
>  <COMPOUND>
Cc1nc(C2CCCN2C(=O)c2ccncc2)nc2c1CCC(=O)N2CCc1ccccc1 (stereo not shown)

>  <Inhibition percent [%]>
-1.75

$$$$
>  <COMPOUND>
Cc1cc(C)nc(NCCC(=O)N2CCOC(c3cccc(Cc4ccccc4C)n3)C2)n1 (stereo not shown)

>  <Inhibition percent [%]>
-1.37

$$$$

Ask: Any idea what Inhibition percent was measured for `COc1cccc(-c2cc(C(=O)N3[C@H]4CCC[C@H]5N(C)[C@H](Cc6ccccc6)[C@@H]3C[C@@]45C)on2)c1` ?
Result: 3.67

Ask: Check CN(C)c1cncc(C2CCCN2C(=O)C2(C)CCN(C(=O)c3cccc(F)c3)CC2)n1 (stereo not shown) too.
Result: -1.39

Ask: Also `Clc1ccc2c(c1)[C@H]1OCCC[C@@H]1C1(CCN(CC3CCOCC3)CC1)O2` ?
Result: -1.08

Ask: Follow-up entry: Clc1cccc(Cc2cncc(C3CCCN3Cc3ccnc(N4CCOCC4)n3)n2)c1 (stereo not shown)
Result: 3.31

Ask: Do the same for O=C(NCCc1ccc(Cl)cc1)C1(Cc2cc(-c3ccccc3)no2)CCCO1 (stereo not shown) please
Result: 8.09

Ask: // next record `COc1cccc([C@@H]2C[C@]3(C)NC(=O)CCCC[C@@H]3N2CC(=O)Nc2ccc(OC(F)F)cc2)c1`
Result: 7.98

* * *

System: PRKACA-PRKAR2A interaction (SmBiT-PRKACA / LgBiT-PRKAR2A), protein kinase A
Set-up: NanoLuc complementation counter-screen in cell extract, PRKACA with PRKAR2A, loss of luminescence, detects NanoLuc interference
TEST CONTEXT: counter-screen for NanoLuc interference; 0.5 h, 20 µM; inhibitor
Where a name gives a salt, the structure may show the parent alone.
Listed here are molecules together with their documented Inh (PKA).
Write the answer as a number in %, unit excluded.

Previously resolved entries follow.
>  <MOLECULE>
Cc1ccc2nc(CN(CCN(Cc3nc4ccc(C)cc4[nH]3)Cc3nc4ccc(C)cc4[nH]3)Cc3nc4ccc(C)cc4[nH]3)[nH]c2c1

>  <TESTED TARGET>
PRKACA-PRKAR2A interaction (SmBiT-PRKACA / LgBiT-PRKAR2A), protein kinase A

>  <Inh (PKA) (%)>
3.32

$$$$
>  <MOLECULE>
CCCNC(=O)[C@H]1O[C@@H]1C(=O)N[C@H](C(=O)N1CCC[C@H]1C(=O)O)[C@@H](C)CC

>  <TESTED TARGET>
PRKACA-PRKAR2A interaction (SmBiT-PRKACA / LgBiT-PRKAR2A), protein kinase A

>  <Inh (PKA) (%)>
-0.2737

$$$$
>  <MOLECULE>
O=S(=O)(c1cccc2cnccc12)N1CCCNCC1 [UM0141906:01, Fasudil (HA-1077) HCl]

>  <TESTED TARGET>
PRKACA-PRKAR2A interaction (SmBiT-PRKACA / LgBiT-PRKAR2A), protein kinase A

>  <Inh (PKA) (%)>
33.96

$$$$
>  <MOLECULE>
O=c1cc(-c2ccc(O)c(-c3c(O)cc(O)c4c(=O)cc(-c5ccc(O)cc5)oc34)c2)oc2cc(O)cc(O)c12

>  <TESTED TARGET>
PRKACA-PRKAR2A interaction (SmBiT-PRKACA / LgBiT-PRKAR2A), protein kinase A

>  <Inh (PKA) (%)>
47.02

$$$$
>  <MOLECULE>
COc1c(C)c2c(c(O)c1C/C=C(\C)CCC(=O)OCCN1CCOCC1)C(=O)OC2 [UM0141793:01, Mycophenolate Mofetil]

>  <TESTED TARGET>
PRKACA-PRKAR2A interaction (SmBiT-PRKACA / LgBiT-PRKAR2A), protein kinase A

>  <Inh (PKA) (%)>
3.705

$$$$

Ask: # Inh (PKA) lookup, item `N#Cc1ccc(COC[C@H]2O[C@@H](n3c(NCc4ccc(Cl)c(Cl)c4)nc4c(N)ncnc43)[C@H](O)[C@@H]2O)cc1`
Result: 36.57

Ask: Try the molecule `COc1ccc(S(=O)(=O)N2CCC(N3CCC(C)CC3)CC2)cc1`
Result: 4.343

Ask: Moving on to the next molecule: O=C(O)O [UM0141172:02, Lithium carbonate]
Result: -3.585
